- TARGET_DESC: GPR139 (Homo sapiens)
- PROCEDURE_DETAILS: GPR139 Agonist titration / agonist counterscreen assay (calcium detection, HEK-GPR139 cells)
- Assay type: cell-based
- Design: expressed in transfected cells; host or cells: HEK Aequorin cells, Maxcyte transient transfection
- CONDITION_DETAILS: GPR139 Agonist Activity; fitted dose-response curve
PARAMETER_MEASURED: Hill Slope

A selection of reference data follows.
COMPOUND	PARAMETER_MEASURED	NUMERIC_READOUT
CC(C)C(C)(C#N)NC(=O)CSc1nnc(Cc2cccc3ccccc23)n1N (stereo not drawn) [SR-01000052065]	Hill Slope	0.53
O=C(O)c1ccccc1C(=O)c1cccc2ccccc12 [SR-01000391835]	Hill Slope	0.80
CCn1c(=O)c([N+](=O)[O-])c(NCCc2ccc(OC)cc2)c2ccccc21 [SR-01000918303]	Hill Slope	0.73
CCn1c(=O)n(CC(=O)NCC2COc3ccccc3O2)c(=O)c2ccccc21 (stereo not drawn) [SR-01000589950]	Hill Slope	0.72
COc1ccc(C2(C)NC(=O)N(CC(=O)NCc3ccc(F)cc3)C2=O)cc1 (stereo not drawn) [SR-01000918720]	Hill Slope	0.42

I = O=C(CN1CCN(Cc2ccccc2Cl)C1=O)NC1CCCCCCC1 [SR-01000125462]
II = C=C(C)CN(CC)C(=O)CN1C(=O)NC(C)(c2ccc3ccccc3c2)C1=O (stereo not drawn) [SR-01000048841]
Input: Select the item whose Hill Slope value is smaller, choosing between I and II . Lab note: record the label of whichever item you select.
Output: II

I = CC(C(=O)NCCc1ccc(Cl)cc1)n1ncn2cccc2c1=O (stereo not drawn) [SR-01000140260]
II = CC(Oc1ccc(Cl)cc1Cl)C(=O)NNC(=O)COc1ccccc1 (stereo not drawn) [SR-01000370374]
III = CC(C)C(CC(=O)Cc1cccc2ccccc12)C(=O)Nc1cccc(C#N)c1 (stereo not drawn) [SR-05000022531]
IV = COc1cccc(C(=O)NNC(=O)COc2ccc(C)cc2Br)c1 [SR-01000369718]
Input: Let's sort these by Hill Slope, smallest first. Go ahead? Use the labels to give the requested order.
Output: III, IV, I, II

a = O=C(CSc1ccc2ccccc2c1)NNC(=O)c1ccc(Br)s1 [SR-01000069345]
b = Cc1ccc2c(CC(=O)NNC(=O)CC34CC5CC(CC(C5)C3)C4)coc2c1 [SR-01000054849]
Input: Select the item whose Hill Slope value is smaller, choosing between a and b . Lab note: record the label of whichever item you select.
Output: b
(b: 0.47, a: 1.18)

---

- TARGET_DESC: GPR139 (Homo sapiens, UniProt Q6DWJ6)
- Sequence (Q6DWJ6 whole entry): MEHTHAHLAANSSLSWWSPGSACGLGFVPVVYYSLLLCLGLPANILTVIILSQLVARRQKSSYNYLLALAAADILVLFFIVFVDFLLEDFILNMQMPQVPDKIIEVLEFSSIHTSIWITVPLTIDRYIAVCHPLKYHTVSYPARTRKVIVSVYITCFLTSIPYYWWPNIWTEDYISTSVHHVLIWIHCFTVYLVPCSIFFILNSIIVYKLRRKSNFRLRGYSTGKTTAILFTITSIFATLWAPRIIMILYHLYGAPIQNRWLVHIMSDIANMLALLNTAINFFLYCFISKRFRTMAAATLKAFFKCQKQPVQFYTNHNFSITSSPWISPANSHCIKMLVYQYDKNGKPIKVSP
- PROCEDURE_DETAILS: GPR139 Agonist titration / agonist counterscreen assay (calcium detection, HEK-GPR139 cells)
- Type: cell-based
- Set-up: expressed in transfected cells; host or cells: HEK Aequorin cells, Maxcyte transient transfection
- CONDITION_DETAILS: GPR139 Agonist Activity
PARAMETER_MEASURED: Hill Slope

COMPOUND	TARGET_DESC	NUMERIC_READOUT
COC(=O)c1ccc(CSc2nnc(N)s2)cc1 [SR-01000031964]	GPR139 (Homo sapiens, UniProt Q6DWJ6)	1.27
COc1ccccc1CN1CCNC(=O)C1CC(=O)NCCCN1CCc2ccccc21 (stereo not shown) [SR-01000176838]	GPR139 (Homo sapiens, UniProt Q6DWJ6)	0.77
COc1cc(OC)cc(C(=O)NNC(=O)COc2cc(C)c(Cl)c(C)c2)c1 [SR-01000358286]	GPR139 (Homo sapiens, UniProt Q6DWJ6)	1.77
O=C(CN1C(=O)OC(O)(c2ccc(Cl)cc2Cl)C1=O)Nc1ccccc1Cl (stereo not shown) [SR-01000062419]	GPR139 (Homo sapiens, UniProt Q6DWJ6)	0.63

A = Cc1ccccc1CN1CCC(O)(c2ccc(Cl)c(C(F)(F)F)c2)CC1 [SR-05000022582]
B = O=C(CN1C(=O)NC2(CCc3ccccc3C2)C1=O)Nc1cccc2ccccc12 (stereo not shown) [SR-01000042749]
C = O=c1cc(-c2ccccc2)[nH]c2nc(OCc3cccc([N+](=O)[O-])c3)nn12 [SR-01000289377]
Input: List items by Hill Slope in falling order. Use the labels to give the requested order.
Output: C, A, B

A = CC(C)C(=O)NNC(=O)C(C)Oc1ccc(Cl)cc1Cl (stereo not shown) [SR-01000361172]
B = CCOc1ccccc1NC(=O)CN1C(=O)NC(C)(c2ccc(Cl)cc2Cl)C1=O (stereo not shown) [SR-01000072797]
Input: Just curious, which one has the larger Hill Slope reading, A or B ? Lab note: record the label of whichever item you select.
Output: A

1 = O=C(Cn1nc(Cc2ccncc2)c2ccccc2c1=O)N1CCCc2ccccc21 [SR-01000151917]
2 = COc1ccc(Cl)cc1C(=O)NNC(=O)CCc1ccc([N+](=O)[O-])cc1 [SR-01000054340]
Input: Select the item whose Hill Slope value is smaller, choosing between 1 and 2 . Lab note: record the label of whichever item you select.
Output: 2
